- test_target: UniProt:Q8WUI4
- Sequence (Q8WUI4 whole entry): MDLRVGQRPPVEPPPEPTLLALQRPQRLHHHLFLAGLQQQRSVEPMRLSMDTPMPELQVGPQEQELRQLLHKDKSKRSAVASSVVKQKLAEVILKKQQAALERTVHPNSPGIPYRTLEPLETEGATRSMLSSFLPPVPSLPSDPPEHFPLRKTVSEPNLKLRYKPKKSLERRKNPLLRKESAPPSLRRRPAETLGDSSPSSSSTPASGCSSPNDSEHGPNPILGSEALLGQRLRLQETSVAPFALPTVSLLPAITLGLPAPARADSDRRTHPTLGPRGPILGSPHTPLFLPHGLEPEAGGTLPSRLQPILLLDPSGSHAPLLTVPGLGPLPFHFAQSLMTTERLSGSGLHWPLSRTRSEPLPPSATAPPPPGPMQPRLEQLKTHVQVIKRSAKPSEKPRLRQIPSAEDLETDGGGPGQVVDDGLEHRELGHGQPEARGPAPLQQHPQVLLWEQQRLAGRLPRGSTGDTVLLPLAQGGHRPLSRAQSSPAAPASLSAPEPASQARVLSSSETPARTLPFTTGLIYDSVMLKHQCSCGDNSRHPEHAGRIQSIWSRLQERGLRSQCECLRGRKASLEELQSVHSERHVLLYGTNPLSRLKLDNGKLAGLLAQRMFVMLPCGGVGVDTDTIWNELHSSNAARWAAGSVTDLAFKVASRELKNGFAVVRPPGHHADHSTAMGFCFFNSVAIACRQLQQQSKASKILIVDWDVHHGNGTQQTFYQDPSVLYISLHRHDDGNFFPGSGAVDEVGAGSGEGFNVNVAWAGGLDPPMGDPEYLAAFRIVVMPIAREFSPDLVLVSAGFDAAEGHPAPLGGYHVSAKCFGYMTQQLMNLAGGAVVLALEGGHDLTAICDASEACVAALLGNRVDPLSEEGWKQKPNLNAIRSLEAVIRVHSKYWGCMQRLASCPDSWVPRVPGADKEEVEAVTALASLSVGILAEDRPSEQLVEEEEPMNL
- assay: Inhibition of human recombinant HDAC7 pre-incubated for 15 mins before Ac-Leu-Gly-Lys(trifluroAc)-AMC substrate addition and measured after 60 mins by fluorescence based assay
pIC50: −log10 of the molar value.
measured_property: pIC50

> print(dat)
                                   molecule     test.target  measured.property  test.value
1  CN(C)c1ccc(C2(C(=O)Nc3ccc(C(=O)NO)cc3)CCCC2)cc1  UniProt:Q8WUI4              pIC50        5.60

---

# Lookup of reported EC50 keyed by entry
- Tested on: MDA-MB-231
- assay: Cytotoxicity against human MDA-MB-231 cells assessed as increase in intracellular caspase 3/7 release incubated for 72 hrs by Caspase-Glo 3/7 assay
- measurement_parameters: MDA-MB-231, 72 h
measured_property: EC50

> print(dat)
                                   molecule   test.value
1  O=C(O)c1cccc(-c2ccc(C3(C(=O)Nc4ccc(C(=O)NO)cc4)CCCC3)cc2)c1  > 100000 nM
2  CC(C)C(C(=O)Nc1ccc(C(=O)NO)cc1)c1ccccc1 (racemic)      2400 nM
3  O=C(NO)c1ccc(NC(=O)C2(c3ccc4ccccc4c3)CCOCC2)cc1       300 nM
